Would you kindly list self-splicing fitness (ln) for each of these sequences?
Assay: self-splicing fitness, log relative to wild type (ln ratio); higher = more splicing; Tetrahymena group I intron in knt gene, E. coli kanamycin selection, DiMSum; sequences stand for … in CUCUCU…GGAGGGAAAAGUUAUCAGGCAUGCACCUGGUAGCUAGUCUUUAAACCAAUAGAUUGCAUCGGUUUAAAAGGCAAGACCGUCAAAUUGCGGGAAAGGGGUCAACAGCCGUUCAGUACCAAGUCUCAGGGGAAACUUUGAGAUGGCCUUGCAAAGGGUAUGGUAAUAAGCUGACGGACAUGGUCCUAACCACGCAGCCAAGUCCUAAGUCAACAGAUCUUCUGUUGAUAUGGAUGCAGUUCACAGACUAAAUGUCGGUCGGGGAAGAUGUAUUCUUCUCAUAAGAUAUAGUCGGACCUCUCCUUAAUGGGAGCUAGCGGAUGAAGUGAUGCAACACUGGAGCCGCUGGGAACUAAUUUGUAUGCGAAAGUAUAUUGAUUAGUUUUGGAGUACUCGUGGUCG;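 also: selection with 25 µg/mL kanamycin versus none on LB agar overnight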
Details: 37 °C

Recorded results for 3 sequences are shown here.
INSERT INTO measurements (sequence_data, observed_property, result) VALUES
  ('AACAAGCAAUAUUACGAACU', 'self-splicing fitness (ln)', 0.146),
  ('UUGAAGCAAUAUUACGCACA', 'self-splicing fitness (ln)', 0.157),
  ('UGUGAGCAAUAUUACGUUCA', 'self-splicing fitness (ln)', -1.56);

Items follow; give self-splicing fitness (ln) for each.
1. UACUAGCAAUAUUACGGUUG
2. UUGCAGCAAUAUUACGGACG
3. AAAGAGCAAUAUUACGCUUA
4. GUUCAGCAAUAUUACGCGUC
5. ACUCAGCAAUAUUACGCUAG
6. UAGCAGCAAUAUUACGGUCA
7. CAGAAGCAAUAUUACGCGCG
8. ACGGAGCAAUAUUACGGGCC

**Result**
1: -1.06; 2: -1.1; 3: -3.02; 4: -0.257; 5: -1.3; 6: 0.278; 7: 0.0448; 8: -1.06

Items follow; give self-splicing fitness (ln) for each.
1. UUGAAGCAAUAUUACGUACU
2. UCCGAGCAAUAUUACGUUGG
3. GGCUAGCAAUAUUACGCCUU
4. UUUCAGCAAUAUUACGAACA
5. AGAAAGCAAUAUUACGUCAA
6. UUCCAGCAAUAUUACGUUAU
7. GGCUAGCAAUAUUACGAAGA

**Result**
[-0.0917, -1.78, -0.73, 0.793, -0.692, -1.95, -0.778]

Items follow; give self-splicing fitness (ln) for each.
1. CCCUAGCAAUAUUACGUCAG
2. UCGUAGCAAUAUUACGAUCG
3. AACGAGCAAUAUUACGUAGU
4. GAAUAGCAAUAUUACGCUUU
5. UUUCAGCAAUAUUACGGACG

**Result**
1. -2.91
2. -0.597
3. -2.24
4. -1.35
5. 0.598

Items follow; give self-splicing fitness (ln) for each.
1. GUGAAGCAAUAUUACGACGG
2. CUCCAGCAAUAUUACGCCUG
3. GUAAAGCAAUAUUACGCUUU
4. AGCAAGCAAUAUUACGGAAA
5. AACCAGCAAUAUUACGGAGC

**Result**
1. -0.418
2. -2.71
3. -1.8
4. -1.03
5. -1.49
